target: Voltage-dependent L-type calcium channel subunit alpha-1C (Oryctolagus cuniculus); test: Antagonist activity at rabbit Cav1.2 expressed in HEK293 cells assessed as inhibition of voltage pulse-induced calcium current by FLIPR calcium 4 assay
Sequence (P15381 whole entry): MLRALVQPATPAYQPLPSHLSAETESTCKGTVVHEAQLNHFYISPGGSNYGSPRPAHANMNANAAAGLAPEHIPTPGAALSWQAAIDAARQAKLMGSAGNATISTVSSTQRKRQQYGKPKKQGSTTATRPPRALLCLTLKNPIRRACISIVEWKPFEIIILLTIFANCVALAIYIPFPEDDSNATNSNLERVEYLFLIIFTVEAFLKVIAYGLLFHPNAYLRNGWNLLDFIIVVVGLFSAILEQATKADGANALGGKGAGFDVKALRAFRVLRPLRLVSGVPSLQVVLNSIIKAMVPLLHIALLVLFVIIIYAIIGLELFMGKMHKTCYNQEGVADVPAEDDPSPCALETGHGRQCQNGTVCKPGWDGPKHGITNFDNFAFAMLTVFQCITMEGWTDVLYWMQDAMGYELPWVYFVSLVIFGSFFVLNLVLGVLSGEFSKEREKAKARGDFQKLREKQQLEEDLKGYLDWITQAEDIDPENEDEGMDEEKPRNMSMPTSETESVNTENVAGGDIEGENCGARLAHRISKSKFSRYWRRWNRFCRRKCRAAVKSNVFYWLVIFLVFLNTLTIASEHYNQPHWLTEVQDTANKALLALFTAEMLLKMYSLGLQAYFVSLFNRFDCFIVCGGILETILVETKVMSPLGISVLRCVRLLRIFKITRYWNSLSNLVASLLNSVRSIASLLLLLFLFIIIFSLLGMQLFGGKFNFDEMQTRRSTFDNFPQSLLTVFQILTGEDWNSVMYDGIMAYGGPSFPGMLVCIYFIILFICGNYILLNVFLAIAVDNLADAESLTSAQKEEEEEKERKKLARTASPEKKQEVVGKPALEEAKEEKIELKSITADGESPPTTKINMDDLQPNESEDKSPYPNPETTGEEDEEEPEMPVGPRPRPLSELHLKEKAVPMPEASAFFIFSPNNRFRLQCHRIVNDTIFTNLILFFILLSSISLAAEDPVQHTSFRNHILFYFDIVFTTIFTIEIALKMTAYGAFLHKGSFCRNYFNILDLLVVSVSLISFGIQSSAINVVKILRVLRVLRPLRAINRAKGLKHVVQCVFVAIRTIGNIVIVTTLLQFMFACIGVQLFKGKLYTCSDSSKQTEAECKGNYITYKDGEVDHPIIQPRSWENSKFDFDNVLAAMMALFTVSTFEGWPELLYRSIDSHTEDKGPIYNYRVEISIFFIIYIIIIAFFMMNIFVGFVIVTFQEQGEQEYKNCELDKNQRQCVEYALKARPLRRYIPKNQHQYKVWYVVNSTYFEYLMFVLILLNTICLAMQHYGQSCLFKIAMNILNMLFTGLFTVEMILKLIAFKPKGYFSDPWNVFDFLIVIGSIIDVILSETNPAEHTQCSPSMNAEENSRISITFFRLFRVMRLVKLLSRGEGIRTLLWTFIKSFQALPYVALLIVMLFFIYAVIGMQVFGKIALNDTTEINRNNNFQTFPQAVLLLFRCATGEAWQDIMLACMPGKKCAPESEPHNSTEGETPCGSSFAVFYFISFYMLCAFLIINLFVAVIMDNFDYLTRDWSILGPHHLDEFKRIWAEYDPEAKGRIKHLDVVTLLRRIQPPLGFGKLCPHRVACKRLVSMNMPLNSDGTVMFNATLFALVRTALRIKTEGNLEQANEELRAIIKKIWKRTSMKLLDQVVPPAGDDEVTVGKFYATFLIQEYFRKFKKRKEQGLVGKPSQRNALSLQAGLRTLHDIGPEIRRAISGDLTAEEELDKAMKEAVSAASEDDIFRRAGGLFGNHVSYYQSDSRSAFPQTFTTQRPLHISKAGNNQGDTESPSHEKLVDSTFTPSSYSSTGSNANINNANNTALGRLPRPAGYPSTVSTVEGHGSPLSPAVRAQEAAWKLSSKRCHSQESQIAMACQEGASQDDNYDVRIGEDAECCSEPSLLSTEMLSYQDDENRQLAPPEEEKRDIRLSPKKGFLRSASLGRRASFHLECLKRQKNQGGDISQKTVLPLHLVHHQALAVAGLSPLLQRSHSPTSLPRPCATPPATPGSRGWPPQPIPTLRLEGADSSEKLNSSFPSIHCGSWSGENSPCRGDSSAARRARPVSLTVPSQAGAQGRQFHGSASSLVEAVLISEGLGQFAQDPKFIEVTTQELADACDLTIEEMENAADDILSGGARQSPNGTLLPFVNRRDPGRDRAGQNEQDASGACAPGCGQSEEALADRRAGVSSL
PROPERTY NAME: IC50 (nM)
One number for each entry, in nM.

Before answering, review these 2 worked examples.
COC(=O)C1=C(C)NC(C)=C(C(=O)OCCc2ccc(Cl)cc2)C1c1cccc([N+](=O)[O-])c1 (stereo not drawn) = 8
COC(=O)C1=C(C)NC(C)=C(C(=O)OCCCCc2ccc(OC)cc2)C1c1cccc([N+](=O)[O-])c1 (stereo not drawn) = 17

Fill in IC50 for each of the 4 compounds listed.
1. COC(=O)C1=C(C)NC(C)=C(C(=O)OC/C=C/c2ccccc2)C1c1cccc([N+](=O)[O-])c1 (stereo not drawn)
2. C=CCOC(=O)C1=C(C)NC(C)=C(C(=O)OCC)C1c1cccc([N+](=O)[O-])c1 (stereo not drawn)
3. COC(=O)C1=C(C)NC(C)=C(C(=O)OC2Cc3ccccc3C2)C1c1cccc([N+](=O)[O-])c1 (stereo not drawn)
4. C=CCOC(=O)C1=C(C)NC(C)=C(C(=O)OC)C1c1ccccc1[N+](=O)[O-] (stereo not drawn)

Output:
37
25
72
8

Fill in IC50 for each of the 2 compounds listed.
1. COC(=O)C1=C(C)NC(C)=C(C(=O)OC)C1c1ccccc1SC
2. COC(=O)C1=C(C)NC(C)=C(C(=O)OCc2ccc(OC)cc2)C1c1cccc([N+](=O)[O-])c1 (stereo not drawn)

Output:
1. 8
2. 51

The values you see were collected from ChEMBL document CHEMBL1158565.
